- protocol-notes: chemical genetic growth profiling, strain panel (AID 1159580);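 note: tested at 20 µM; growth read once vehicle control cultures reached saturation at 30 °C; 1 = growth at the plate median or of vehicle wells; lower values mean less growth of the strain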
- condition: S. cerevisiae deletion strains, growth OD, locus YMR078C, strain ctf18, stronger effect = lower value
In all, about 5,500 compounds went through this assay and about 2,000 (36%) were called active. About 18% were inconclusive and are not listed. The list shows a part of the results.
readout-name: normalized growth
Form rule: numeric answer, no unit written next to it.

Q: Give normalized growth for the following compound: CN(Cc1cnc2nc(N)nc(N)c2n1)c1ccc(C(=O)NC(CCC(=O)O)C(=O)O)cc1 (stereo unspecified)
A: 0.986

Q: Output normalized growth of COc1ccc(C[C@H](N)C(=O)N[C@@H]2[C@@H](CO)OC(n3cnc4c(N(C)C)ncnc43)[C@@H]2O)cc1 (stereo partly specified)
A: 1.02

Q: Provide only the value of recorded normalized growth for CN=C1CN(O)C(c2ccccc2)=c2cc(Cl)ccc2=N1
A: 0.98

Q: Given CCN(CC)CCOC(=O)C(Cc1cccc2ccccc12)CC1CCCO1 (stereo unspecified) , respond with its normalized growth.
A: 1.02

Q: For the compound O=C1OCCN1/N=C\c1ccc([N+](=O)[O-])o1 , give its reported normalized growth.
A: 0.976

Q: Dear colleague, please send me the reported normalized growth for COc1ccccc1-c1cc(=O)c2c(OC)cccc2o1 when you can.
A: 0.969

Q: State its normalized growth: O=C(O)CCC(=O)c1ccc(-c2ccccc2)cc1
A: 0.963

Q: Kindly indicate its recorded normalized growth. Item: CS(=O)(=O)OCCCCOS(C)(=O)=O
A: 0.942

Q: Give the measured normalized growth for CO[C@@H]1[C@@H](O[C@@H]2O[C@H](C)[C@@H](O[C@H]3C[C@@](C)(O)[C@H](O)[C@H](C)O3)[C@H](N(C)C)[C@H]2O)[C@@H](CC=O)C[C@@H](C)[C@@H](O[C@H]2CC[C@H](N(C)C)[C@@H](C)O2)/C=C/C=C/C[C@H](C)OC(=O)C[C@H]1O
A: 0.993

Q: Identify normalized growth associated with the compound C/C=C/c1ccc(OC)cc1
A: 1.01

Q: Write down normalized growth measured for item COc1cc(O)cc(/C=C/c2ccccc2)c1
A: 0.938

Q: Provide one value: measured normalized growth of CC(COc1ccccc1)N(CCCl)Cc1ccccc1 (stereo unspecified)
A: 1.02

Q: Give reported normalized growth value for CC(=O)OC/C=C(C)/C=C/C=C(C)/C=C/C1=C(C)CCCC1(C)C
A: 1.01

Q: Using known records, supply normalized growth for Cc1ccc(C(C)C)cc2c(C)ccc1-2
A: 1.02

Q: Report measured normalized growth; entry is C[C@@H]1CC2C3CCC4=CC(=O)C=C[C@]4(C)[C@@]3(F)[C@@H](O)C[C@]2(C)[C@@]1(O)C(=O)COP(=O)(O)O (stereo partly specified)
A: 0.987

Q: Entry CC12CCCC(O)(C1)C1CC(C)(C)C1CC2 (stereo unspecified) needs its normalized growth filled in; supply it.
A: 1.02

Q: Answer with the recorded normalized growth for the compound listed here: CC(Cc1ccc(O)c(O)c1)(NN)C(=O)O (stereo unspecified)
A: 1.02

Q: Indicate the recorded normalized growth value for this compound: CC(=O)C1=C(O)C2C3c4c[nH]c5cccc(c45)CC3C(C)(C)N2C1=O (stereo unspecified)
A: 1

Q: Please give the documented normalized growth of Nc1nc2c(c(=O)[nH]1)N(C=O)C(CNc1ccc(C(=O)N[C@@H](CCC(=O)O)C(=O)O)cc1)CN2 (stereo partly specified)
A: 0.981

Q: Answer with reported normalized growth of O=C(O)c1cc(=O)c2c(OCC(O)COc3cccc4oc(C(=O)O)cc(=O)c34)cccc2o1
A: 1.04

Q: # return recorded normalized growth for entry CCn1cc(C(=O)O)c(=O)c2cnc(N3CCCC3)nc21
A: 1

Q: Please report the measured normalized growth for C[C@](N)(Cc1ccc(O)c(O)c1)C(=O)O
A: 0.99

Q: Report measured normalized growth; entry is OC/C=C/c1ccc(O)c(O)c1
A: 0.95

Q: # return recorded normalized growth for input CC1=C(/C=C/C(C)=C/C=C/C(C)=C/C=C/C=C(C)/C=C/C=C(C)/C=C/C2=C(C)CCCC2(C)C)C(C)(C)CCC1
A: 1.03

Q: Consider the compound c1cc2c(cc1[C@H]1OC[C@H]3[C@@H]1CO[C@H]3c1ccc3c(c1)OCO3)OCO2 and give its recorded normalized growth.
A: 0.892

Q: Note normalized growth for the compound shown: COc1ccc(/C=C/c2cc(O)cc(O)c2)cc1
A: 0.967

Q: State its normalized growth: Oc1ccc(/C=C/c2cc(O)cc(O)c2)cc1
A: 0.96

Q: Provide only the value of recorded normalized growth for CC(=O)O[C@H]1C[C@@H](OC(C)=O)C(C)(C)C2C[C@@H](OC(C)=O)[C@]3(C)C(CC[C@@]4(C)[C@H](c5ccoc5)C(=O)[C@H]5O[C@]543)[C@]21C (stereo partly specified)
A: 1.01

Q: Answer with the recorded normalized growth for the compound listed here: Nc1ccc(S(=O)(=O)Nc2nccs2)cc1
A: 0.994

Q: Return the recorded normalized growth value; entry: CO[C@@H]1C[C@@H](C[C@H]2CC[C@H](C)[C@H]([C@@H](C)C(=O)O)O2)O[C@]2(O[C@](C)([C@H]3CC[C@@](C)(C4O[C@@H](C5O[C@@](O)(CO)[C@H](C)C[C@@H]5C)C[C@@H]4C)O3)C[C@H]2C)[C@@H]1C (stereo partly specified)
A: 1.03

Q: Specify reported normalized growth for the compound shown: CC1=CC(=O)CC(C)(C)C1(O)/C=C/C(C)=C\C(=O)O (stereo unspecified)
A: 0.963

Q: Please report normalized growth for the following compound: COC(=O)[C@H]1[C@H]2C[C@@H]3c4[nH]c5cc(OC)ccc5c4CCN3C[C@H]2C[C@@H](OC(=O)c2cc(OC)c(OC)c(OC)c2)[C@@H]1OC
A: 1.01

Q: Answer with the recorded normalized growth of CC1(C)CC2C1CCC1(C)OC2(C)CCC1O (stereo unspecified) only.
A: 1.02

Q: State its normalized growth: Nc1nccs1
A: 0.979

Q: Give normalized growth for CC12CCC(CC1)C(C)(C)O2
A: 1.01

Q: Let me know recorded normalized growth for OCC(S)CS (stereo unspecified) , thanks.
A: 0.995

Q: Report normalized growth for CC(=O)N[C@@H]1[C@@H](C(O)[C@H](O)CO)O[C@](O)(C(=O)O)C[C@@H]1O (stereo partly specified)
A: 1.01

Q: Hello, please tell me recorded normalized growth for this one: CCn1cc(C(=O)O)c(=O)c2cc3c(cc21)OCO3
A: 1

Q: Supply reported normalized growth belonging to this compound: CCOP(=S)(OCC)Oc1ccc2c(C)c(Cl)c(=O)oc2c1
A: 0.979

Q: Please give measured normalized growth of the following entry: O=C(/C=C/c1ccc(O)c(O)c1)O[C@@H]1C[C@](O)(C(=O)O)C[C@@H](O)[C@H]1O
A: 1.02

Q: Report normalized growth for NC(=O)c1cnccn1
A: 1
